Target: IL-6 (Homo sapiens)
Construct: purchased Genzyme Corp
Sequence (P05231 30-212): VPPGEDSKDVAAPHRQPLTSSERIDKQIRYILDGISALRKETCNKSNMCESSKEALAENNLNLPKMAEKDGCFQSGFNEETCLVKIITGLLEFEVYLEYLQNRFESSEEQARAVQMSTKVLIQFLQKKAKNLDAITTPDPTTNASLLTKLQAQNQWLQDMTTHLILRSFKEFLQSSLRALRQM
Test: Activity for inhibition of binding of IL-6 to receptor by peptide (IL-6 receptor expression cells, FITC labeled anti-IL-6 antibody)
Conditions: 5 μg of the peptide, 50 ng of IL-6, 10^5 IL-6 receptor expression cells, 4° C for one hour
Source text: A human lymphocyte fraction was obtained from human peripheral blood with Ficoll-Paque (manufactured by Pharmacia-LKB). The fraction was reacted with a cultured supernatant of Epstein-Barr Virus producing cell strain B958 to transform the human lymphocytes to obtain IL-6 receptor expression cells. […]
No end group written: not given here.
value-kind: Binding inhibition activity (%)
Entry rule: numbers only, all in %.

Prompt: What Binding inhibition activity (%) appears in the records for this substance with IL-6 (Homo sapiens)? PHSWNSSFYRLRFELRYRAERSK [Example 69]
Completion: 54

Prompt: What Binding inhibition activity (%) appears in the records for this substance with IL-6 (Homo sapiens)? EEEHSWNSSFYRLRFELRYRAERSKKG-NH2 [Example 63]
Completion: 51

Prompt: What Binding inhibition activity (%) appears in the records for this substance with IL-6 (Homo sapiens)? WNSSFYRLRFELRYRAERSK [Example 37]
Completion: 48

Prompt: What Binding inhibition activity (%) appears in the records for this substance with IL-6 (Homo sapiens)? DDDDDPHSWNSSFYRLRFELRYRAERSKAAG-NH2 [Example 72]
Completion: 57

Prompt: What Binding inhibition activity (%) appears in the records for this substance with IL-6 (Homo sapiens)? KWNSSFYRLRFELRYRAERSKD-NH2 [Example 38]
Completion: 56

Prompt: What Binding inhibition activity (%) appears in the records for this substance with IL-6 (Homo sapiens)? KKHSWNSSFYRLRFELRYRAERSK [Example 58]
Completion: 60

Prompt: What Binding inhibition activity (%) appears in the records for this substance with IL-6 (Homo sapiens)? DDDDDTSLPGDSVTLTCPGVEPEDAAG-NH2 [Example 8]
Completion: 37

Prompt: What Binding inhibition activity (%) appears in the records for this substance with IL-6 (Homo sapiens)? KKGTVHLLVDVPPEEPQLSCFRK [Example 10]
Completion: 28

Prompt: What Binding inhibition activity (%) appears in the records for this substance with IL-6 (Homo sapiens)? GTVHLLVDVPPEEPQLSCFRKK [Example 9]
Completion: 30

Prompt: What Binding inhibition activity (%) appears in the records for this substance with IL-6 (Homo sapiens)? DDDDDRKFQNSPAEDFQEPCQYSQESAAG-NH2 [Example 24]
Completion: 55

Prompt: What Binding inhibition activity (%) appears in the records for this substance with IL-6 (Homo sapiens)? KDPHSWNSSFYRLRFELRYRAERSKD-NH2 [Example 78]
Completion: 60
